Measured z-score of subpopulation abundance by item
Tested on: Saccharomyces cerevisiae BY4741 SeMeCo community
method_notes: z-score of subpopulation abundance vs DMSO median, subpopulation auxotrophic for M; higher = larger share of this subpopulation than in DMSO controls
condition_set: 10 µM; 24 h; SM minimal medium; subpopulation (auxotrophy): M
Structures can show the parent of a compound that is named as a salt.
measured_metric: z-score of subpopulation abundance

- compound: "CN(Cc1cnc2nc(N)nc(N)c2n1)c1ccc(C(=O)N[C@@H](CCC(=O)O)C(=O)O)cc1 [Methotrexate]"
  measured_metric: "z-score of subpopulation abundance"
  test_value: -4.24
- compound: "C[C@@H](O)[C@H]1C(=O)N2C(C(=O)O)=C(SCCNC=N)C[C@H]12"
  measured_metric: "z-score of subpopulation abundance"
  test_value: 0.92
- compound: "COc1ccc(C[C@H](N)C(=O)N[C@H]2[C@@H](O)[C@H](n3cnc4c(N(C)C)ncnc43)O[C@@H]2CO)cc1 [Puromycin 2HCl]"
  measured_metric: "z-score of subpopulation abundance"
  test_value: 0.81
- compound: "CC(=O)Oc1ccccc1C(=O)O"
  measured_metric: "z-score of subpopulation abundance"
  test_value: 1.14
- compound: "Oc1c(Cl)cc(Cl)cc1Sc1cc(Cl)cc(Cl)c1O"
  measured_metric: "z-score of subpopulation abundance"
  test_value: -3.78
- compound: "C/C(=C\\C(=O)OCCCCCCCCC(=O)O)C[C@@H]1OC[C@H](C[C@@H]2O[C@H]2[C@@H](C)[C@H](C)O)[C@@H](O)[C@H]1O"
  measured_metric: "z-score of subpopulation abundance"
  test_value: -0.19
- compound: "CN(C)CCc1c[nH]c2ccc(C[C@H]3COC(=O)N3)cc12"
  measured_metric: "z-score of subpopulation abundance"
  test_value: -0.23
- compound: "N[C@@H](C(=O)N[C@@H]1C(=O)N2C(C(=O)O)=C(Cl)CS[C@H]12)c1ccccc1"
  measured_metric: "z-score of subpopulation abundance"
  test_value: 0.46
- compound: "CNCC[C@@H](Oc1ccccc1C)c1ccccc1 [Atomoxetine HCl]"
  measured_metric: "z-score of subpopulation abundance"
  test_value: 0.21

###

System: Saccharomyces cerevisiae BY4741 SeMeCo community
method_notes: z-score of subpopulation abundance vs DMSO median, subpopulation auxotrophic for UM; higher = larger share of this subpopulation than in DMSO controls
condition_set: 10 µM; 24 h; SM minimal medium; subpopulation (auxotrophy): UM
Counter-ions that a name gives are not always drawn.
Returns one of Condition met or Condition not met; Condition met when z-score of subpopulation abundance is >= 0.4.

- compound: "C[C@@H](O)[C@H]1C(=O)N2C(C(=O)O)=C(SCCNC=N)C[C@H]12 [Imipenem]"
  assigned_class: "Condition met"
- compound: "C#C[C@]1(O)CC[C@H]2[C@@H]3CCC4=CCCC[C@@H]4[C@H]3C(=C)C[C@@]21CC [Desogestrel]"
  assigned_class: "Condition not met"
- compound: "C[C@]12CC[C@@H]3c4ccc(O)cc4CC[C@H]3[C@@H]1C[C@@H](O)[C@@H]2O [Estriol]"
  assigned_class: "Condition not met"
- compound: "CN(C)CC(c1ccc(O)cc1)C1(O)CCCCC1 (stereo not drawn) [Desvenlafaxine]"
  assigned_class: "Condition not met"
- compound: "O=C1c2cccc3c2[C@H](CCC3)CN1[C@@H]1CN2CCC1CC2 [Palonosetron HCl]"
  assigned_class: "Condition not met"
- compound: "NC(=O)N/N=C/c1ccc([N+](=O)[O-])o1 [Nitrofural]"
  assigned_class: "Condition met"
- compound: "COc1cc(O)c(C(=O)Nc2nc(C(=O)NCCN(C(C)C)C(C)C)cs2)cc1OC [Acotiamide]"
  assigned_class: "Condition not met"
- compound: "CC(C)C(=O)c1c(C(C)C)nn2ccccc12 [Ibudilast]"
  assigned_class: "Condition met"
